Tested on: HeLa
Applied Conditions: bulk resorufin, single well, 28.5 h, 10 µM, Bulk resorufin fluorescence
Please go through the items and note down their % viability.
Reply numerically in %, unit not repeated.

Provide one value: measured % viability of CC(C)(C)OC(=O)N1CCC[C@H]([C@H](O)c2ccc(F)cc2)C1 [CBK284298]
80.1

Provide one value: measured % viability of CC(C)(C)OC(=O)N1CCC[C@@H](CNC(=O)c2cccs2)C1 [CBK284332]
90.2

Provide one value: measured % viability of Cc1c(NC(=O)OC(C)C)sc(=S)n1C [CBK028089]
83.7

Provide one value: measured % viability of Cc1cc(CN2CC3CCCN3C[C@@H]2C)c(C)n1-c1ccccn1 (stereo partly shown) [CBK285431]
98.1

Provide one value: measured % viability of COCCn1c(S)nc(=O)c2cc(C)cnc21 [CBK288520]
92.2

Provide one value: measured % viability of C[C@@H]1CN2CCCC2CN1Cc1cc(F)cc(F)c1 (stereo partly shown) [CBK285405]
105

Provide one value: measured % viability of Nc1c(-c2cccc3cccnc23)cnc2ncccc12 [CBK083682]
88.7

Provide one value: measured % viability of CCN(CC)CCNC(=O)/C(=N\O)c1ccccn1 [CBK264538]
93.9

Provide one value: measured % viability of COc1cc(-c2ccc(OC3CCNCC3)cc2)cc(OC)c1OC [CBK093682]
102

Provide one value: measured % viability of O=C(CN1C(=O)[C@@H]2CCCN2c2ncccc21)NCc1ccccc1 [CBK286203]
117

Provide one value: measured % viability of COc1ccc(-n2ccc(=O)c(Cc3c(Cl)cccc3Cl)c2C)cc1 [CBK019186]
106

Provide one value: measured % viability of O=C(O)/C(SC1=NC2=Nc3ccccc3C2N=N1)=C1/C(=O)Nc2ccccc21 (stereo not shown) [CBK021943]
96

Provide one value: measured % viability of Cc1oc(C2CC2)cc1C(=O)N[C@H](C)Cn1nnc2ccccc21 [CBK284258]
80.8

Provide one value: measured % viability of Oc1ccc(-c2cncc(-c3ccc(CN4CCOCC4)cc3)n2)cc1 [CBK123787]
108

Provide one value: measured % viability of COc1ccc(C(=O)Nc2ccc(OCC(=O)O)cc2)cc1 [CBK260894]
85.6

Provide one value: measured % viability of CC(C)(C)NC(=O)CN1C(=O)[C@H]2CCCN2C(=O)c2ccccc21 [CBK282428]
107

Provide one value: measured % viability of O=[N+]([O-])c1c(-c2cn[nH]c2)n[nH]c1-c1cn[nH]c1 [CBK008388]
93.4

Provide one value: measured % viability of O=C(Nc1ccccc1OC1CCNCC1)C1CCCO1 (stereo not shown) [CBK045905T]
110

Provide one value: measured % viability of CCn1ncc(CN2C[C@@H]3CCCN3C[C@@H]2CCSC)c1C [CBK285446]
110

Provide one value: measured % viability of CC[C@@H](Cn1nc(-c2cccs2)ccc1=O)NC(=O)c1ccco1 [CBK282308]
87.3

Provide one value: measured % viability of CC(=O)n1cc(C2C(=O)NN=C2C)c2ccccc21 (stereo not shown) [CBK083563]
82.3

Provide one value: measured % viability of C[C@@H]1CN2CCCC2CN1Cc1cc(F)ccc1F (stereo partly shown) [CBK285444]
94.9

Provide one value: measured % viability of Nc1nc(Nc2ccccc2)nc(C(F)(F)F)n1 [CBK004712]
72

Provide one value: measured % viability of O=C(NC1CCCCC1)[C@H]1C=CCN1C(=O)c1ccc(F)cc1F [CBK282311]
97.2

Provide one value: measured % viability of COCCn1cc(CN2CC3CCCN3C[C@H]2C)c2ccccc21 (stereo partly shown) [CBK285427]
106

Provide one value: measured % viability of CCOc1ccsc1C(=O)NCc1ccc(OC2CCNCC2)cc1 [CBK036355T]
114

Provide one value: measured % viability of CCOc1ccc(CCN2C(=O)CN=C2S)cc1OCC [CBK288528]
98.3

Provide one value: measured % viability of O=C(O)/C=C\C(=O)Nc1ccccc1C#Cc1ccccc1 [CBK261680]
83.2

Provide one value: measured % viability of O=C(O)C1(c2ccccc2)CCN(S(=O)(=O)c2ccc(F)cc2)CC1 [CBK267571]
87.8

Provide one value: measured % viability of Cc1ccc(Nc2cc(N3CCC(C(=O)O)CC3)ncn2)cc1 [CBK288121]
91.3

Provide one value: measured % viability of C[C@@H]1CN2CCCC2CN1Cc1cccs1 (stereo partly shown) [CBK284550]
98.3

Provide one value: measured % viability of C[C@H](Cn1nc2c(cc1=O)CCCCC2)NC(=O)c1cccs1 [CBK284545]
85.9

Provide one value: measured % viability of CS(=O)(=O)Nc1ccc2[nH]c(=O)c(C(=O)NCc3ccc(Cl)cc3)cc2c1 [CBK017560]
102

Provide one value: measured % viability of O=C(Cn1c([C@H]2CCCO2)cc2cccnc21)NC1CCCC1 [CBK285219]
85.4

Provide one value: measured % viability of O=C1[C@@H]2CCCN2C(=O)c2ccccc2N1Cc1ccc(F)cc1 [CBK282856]
99.5

Provide one value: measured % viability of C[C@@H]1CN2CCCC2CN1CC1=Cc2ccccc2OC1 (stereo partly shown) [CBK284552]
103

Provide one value: measured % viability of NCCc1c(C23CC4CC(CC(C4)C2)C3)[nH][nH]c1=O [CBK288081]
106

Provide one value: measured % viability of CS(=O)(=O)Nc1cc2cccnc2nc1-c1ccc2c(c1)CCO2 [CBK085690]
102

Provide one value: measured % viability of CCCCOC(=O)c1ccc(NC(=O)Nc2ccc3ccc(Cl)nc3n2)cc1 [CBK115932]
97.1

Provide one value: measured % viability of CCOC(=O)c1c(NS(=O)(=O)c2ccc(NC(C)=O)cc2)sc2c1CCCC2 [CBK004658]
99.8
